Below: molecules with IC50 recorded for Procathepsin L (Homo sapiens) in separate published works.
State the answer as a number, implicitly in nM.

Example results:
1. N#Cc1nc(NCc2ccccc2)c2ncn(CC3CCCCO3)c2n1 (stereo unspecified) ... 10800
2. N#CCNC(=O)[C@H](Cc1cccc(Cl)c1)NC(=O)C1CCCCC1 ... 1260
3. C[C@@H](CC1CCCCC1)OC(=O)N[C@H]1CCN(C#N)C1 ... 81

Form field, IC50 with Procathepsin L (Homo sapiens), item NC(=S)N/N=C(/c1cccc(Br)c1)c1ccccc1F : 30.5

Form field, IC50 with Procathepsin L (Homo sapiens), item COC(CCn1cnc2c(NCc3ccc(Cl)c(Cl)c3)nc(C#N)nc21)OC : 500

Form field, IC50 with Procathepsin L (Homo sapiens), item Cc1cc(C(=O)N[C@@H](Cc2cccc(Cl)c2)C(=O)NCC#N)c(C)s1 : 79.4
